Value source: PubChem BioAssay (NCI)

Tested on: KM12 colon
Assay: NCI-60 one-dose screen, 48 h (100 = growth as untreated, 0 = no growth, -100 = all killed)
Settings: 10 µM unless noted
Protocol: Growth inhibition of the KM12 human tumor cell line is measured as a screen for anti-cancer activity. Cells are grown in 96 well plates and exposed to the test compound for 48 hours. Compounds are tested at a single concentration, which is 10^-5 M for most compounds. The reported endpoint is percent growth (GI% or GIPRCNT), where numbers from 0 - 100% represent growth inhibition, and numbers from -100% - 0 represent cell death. For example, a value of 40 represents 60% growth inhibition. […]
Compounds without any hit were thinned out: in the full panel of roughly 83,000, 20% have a hit.
With a cut-off of 20%, any growth strictly below it is called satisfied; any growth meeting it or above is called not satisfied.

* COc1cc(Cc2cc(OC)c(O)c(OC)c2)cc(OC)c1O | not satisfied
* CN(C)CCCn1c2c(c3cnccc3c1=O)C(=O)c1ccccc1-2 | satisfied
* COc1ccc(Nc2ncc(I)c(NCCCNC(=O)C3CCC3)n2)cc1 | satisfied
* COC(=O)c1c2c(c(C)[n+]([O-])c1C)C(=O)C(NCc1ccccc1)=CC2=O | not satisfied
* CN1C(=O)N2CN3CCCN(C3)CN3C(=S)NC1C23 (stereo unspecified) | not satisfied
